Entry source: the RNAGym collection of RNA variant scans (doi:10.7554/elife.90254)

B1: LINE1-full (parent)
chain: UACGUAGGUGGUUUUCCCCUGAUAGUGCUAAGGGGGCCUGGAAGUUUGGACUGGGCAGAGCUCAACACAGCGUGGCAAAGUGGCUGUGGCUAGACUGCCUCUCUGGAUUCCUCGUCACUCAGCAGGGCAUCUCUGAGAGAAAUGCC

# Variants of: B1
# Run description: self-cleavage, relative activity (ratio to wild type); higher = more cleavage; in vitro, sequencing; the parent is a self-cleaving ribozyme
# cutoff 0.1 applies to self-cleavage; >= gives 1 (yes), < gives 0 (no)

UACGUAGGUGGUUUUCCCCUGAUAGUGCUAAGGGGGCCUGGAAGUUUGGGCUGGGCAGAGCUCAACACCGCGUGGCAAAGUGGCUGUGGCUAGACUGCCUCUCUGGAUUCCUCGUCACUCAGCAGGGCAUCUCUGAGAGAAAUGCC: 0 (no)
UACGUAGGUGGUUUUCCCCUGAUAGGGCUAAGGGGGCCUGGAAGUUUGGACUGGGCAGAGCUCAACACAGCGUGGCAAAGUGGCUGUGGCUAGACUGCCUCUCUGGAAUCCUCGUCACUCAGCAGGGCAUCUCUGAGAGAAAUGCC: 1 (yes)
UACGUAGGUGGUUUCCCCCUGAUAGUGCUAAGGGGGCCUGGAAGUUUGGACUGGGCAGAGCUCAACACAGCGUGGCAAAGUGGCUGUGGCUAGACUGCCUCUCUGGAUUCCACGUCACUCAGCAGGGCAUCUCUGAGAGAAAUGCC: 1 (yes)

Request: Check if self-cleavage >= 0.1 (inclusive). Item: UACGUAGGUGGUUUUCUCCUGAUAGUGCUAAGGGGGCCUGGAAGUUUGGACUGGGCAGAGCUCAACACAGCGUGGCAAUGUGGCUGUGGCUAGACUGCCUCUCUGGAUUCCUCGUCACUCAGCAGGGCAUCUCUGAGAGAAAUGCC
Result: 1 (yes)

Request: Decide: self-cleavage of UACGUAGGUGGUUUUCCCCUGAUAGUGCUAAGGGGGCCUGGAAGUUAGGACUGGGCAGAGCUCAACACAGCGUGGCAAAGUGGCUGUGGCUAGACUGCCUCCCUGGAUUCCUCGUCACUCAGCAGGGCAUCUCUGAGAGAAAUGCC >= 0.1?
Result: 1 (yes)

Request: Textbook exercise: given the entry UACGUAGGAGGUUUUCCCCUGAUAGUGCUAAGGGGGCCUGGAAGUUUGGACUGGGCAGAUCUCAACACAGCGUGGCAAAGUGGCUGUGGCUAGACUGCCUCUCUGGAUUCCUCGUCACUCAGCAGGGCAUCUCUGAGAGAAAUGCC , state whether its self-cleavage is greater than or equal to 0.1.
Result: 0 (no)

Request: self-cleavage >= 0.1 for UACGUAGGUGGUUUUCCCCUGGUAGUGCUAAGGGGGCCUGGAAGUUUGGACUGGGCAGAGCUCAACACAGCGUGGCAAAGUGGCUGUGGCUAGACAGCCUCUCUGGAUUCCUCGUCACUCAGCAGGGCAUCUCUGAGAGAAAUGCC ?
Result: 1 (yes)

Request: Identify whether the reported self-cleavage of the following variant is 0.1 or greater: UACGUAGGUGGUUCUCCCCUGAUAGUGCUAAGGGGGCCUAGAAGUUUGGACUGGGCAGAGCUCAACACAGCGUGGCAAAGUGGCUGUGGCUAGACUGCCUCUCUGGAUUCCUCGUCACUCAGCAGGGCAUCUCUGAGAGAAAUGCC
Result: 1 (yes)

Request: Can UAUGUAGGUGGUUUUCCCCUGAUAGUGCUAAGGGGGCCUGGAAGUUUGGACUGGGCAGAGCCCAACACAGCGUGGCAAAGUGGCUGUGGCUAGACUGCCUCUCUGGAUUCCUCGUCACUCAGCAGGGCAUCUCUGAGAGAAAUGCC be said to have self-cleavage at or above 0.1?
Result: 1 (yes)

Request: Answer whether self-cleavage of UACGUAGGUGGUUUUCCCCUGAUAGUGCUAAGGGGGCCUGGAAGUUUGGGCUGGGCAGAGCUCAACACAGCGUGGCAAAGUGGCUGUGGCUAGACUGCUUCUCUGGAUUCCUCGUCACUCAGCAGGGCAUCUCUGAGAGAAAUGCC is greater than or equal to 0.1.
Result: 1 (yes)

Request: Given UAAGUAGGUGGUUUUCCCCUGAUAGUGCUAAGGGGGCCUGGAAGUUUGGACUGGGCAGAGCUCAACACAGCGUGGCAAAGUGGCUGUGGCUAGACUGCCUCUCUGAAUUCCUCGUCACUCAGCAGGGCAUCUCUGAGAGAAAUGCC , state whether its self-cleavage is at least 0.1.
Result: 1 (yes)

Request: Determine whether measured self-cleavage meets or exceeds 0.1 for UACGUAGGUGGUUUUCCCCUGAUAAUGCUAAGGGGGCCUGGAAGUUUGGACUGGGCAGAGCUCAACACAGCGUGGCAAAGUGGCUGUGGCCAGACUGCCUCUCUGGAUUCCUCGUCACUCAGCAGGGCAUCUCUGAGAGAAAUGCC
Result: 0 (no)

Request: Does the variant UACGUAGGUGGUUUUCCCCUGAUAGUGCUAAGGGGGCCUGGAAGUUUGGACUGGGCAGAGCUCAACACAGCGUGGCAAAGUGGCUGUGGCUAGACUGCCUCUCUGGAUUCCUCGUCAUUCAGCAGGGCAUCUCUGAGAGAAACGCC have recorded self-cleavage that is 0.1 or more?
Result: 1 (yes)

Request: State whether the measured self-cleavage reaches 0.1, counting equality as reaching it, for CACGUAGGUGGUUUUCCCCUGAUAGUGCUAAGGGGGCCUGGAAGUUUGGACUGGGCAGAGCUCAACACAGCGUGGCAAAGUGGCUGUGGCUAGGCUGCCUCUCUGGAUUCCUCGUCACUCAGCAGGGCAUCUCUGAGAGAAAUGCC
Result: 1 (yes)

Request: Is the recorded value of self-cleavage equal to or greater than 0.1 for this variant? UACGUAGGUGGUUUUCCCCUGAUAGUGCUAUGGGGGCCUGGAAGUUUGGACUGGGCAGAGCUCAACACAGCGUGGCAAAGUGGCAGUGGCUAGACUGCCUCUCUGGAUUCCUCGUCACUCAGCAGGGCAUCUCUGAGAGAAAUGCC
Result: 0 (no)
